Source of measurements: the Kinase Knowledgebase extract (Sharma et al. 2016)

Listed here: items and their measured pIC50.
- Measured target: EGFR (human) (UniProt P00533)
- Sequence (P00533 whole entry, looked up): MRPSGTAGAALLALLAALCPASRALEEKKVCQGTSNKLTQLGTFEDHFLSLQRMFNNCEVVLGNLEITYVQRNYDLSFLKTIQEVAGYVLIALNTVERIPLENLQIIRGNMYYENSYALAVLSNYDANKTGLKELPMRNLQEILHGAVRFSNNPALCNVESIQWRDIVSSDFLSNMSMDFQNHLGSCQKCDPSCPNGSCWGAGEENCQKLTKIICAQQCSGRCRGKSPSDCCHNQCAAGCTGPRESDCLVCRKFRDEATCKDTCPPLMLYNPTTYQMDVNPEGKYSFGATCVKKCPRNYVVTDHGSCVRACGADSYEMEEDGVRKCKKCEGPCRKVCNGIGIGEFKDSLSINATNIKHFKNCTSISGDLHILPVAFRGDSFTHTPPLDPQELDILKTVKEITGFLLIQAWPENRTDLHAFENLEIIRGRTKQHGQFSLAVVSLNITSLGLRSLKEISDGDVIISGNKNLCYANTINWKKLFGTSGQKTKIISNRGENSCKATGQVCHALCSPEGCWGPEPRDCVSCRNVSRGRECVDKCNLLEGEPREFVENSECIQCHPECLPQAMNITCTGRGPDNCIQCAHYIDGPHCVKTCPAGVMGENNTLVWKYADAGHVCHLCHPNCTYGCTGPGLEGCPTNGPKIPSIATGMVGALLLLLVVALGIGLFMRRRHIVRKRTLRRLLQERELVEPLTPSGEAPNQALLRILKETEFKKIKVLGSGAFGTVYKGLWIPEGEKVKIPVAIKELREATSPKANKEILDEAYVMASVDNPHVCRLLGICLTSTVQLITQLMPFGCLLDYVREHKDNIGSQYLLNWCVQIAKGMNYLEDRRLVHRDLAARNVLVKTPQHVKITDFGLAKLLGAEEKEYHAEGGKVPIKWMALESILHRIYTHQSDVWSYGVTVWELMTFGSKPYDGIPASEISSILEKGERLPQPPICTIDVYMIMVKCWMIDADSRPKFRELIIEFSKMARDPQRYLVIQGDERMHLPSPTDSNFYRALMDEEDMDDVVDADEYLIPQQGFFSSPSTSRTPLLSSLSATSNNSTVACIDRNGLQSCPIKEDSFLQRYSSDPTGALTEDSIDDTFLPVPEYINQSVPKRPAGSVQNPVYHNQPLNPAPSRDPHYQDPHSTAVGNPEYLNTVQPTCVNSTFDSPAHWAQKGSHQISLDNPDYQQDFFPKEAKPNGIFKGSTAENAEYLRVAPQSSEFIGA
- Condition description: HN5
// pIC50 is dimensionless: -log10 of concentration (M)

Check out these entries, answers already filled in.
{"Substance smiles": "N#C/C(=C\\c1cc([N+](=O)[O-])cs1)C(N)=O", "pIC50": 4.33}
{"Substance smiles": "N#CC(C#N)=Cc1ccc([N+](=O)[O-])s1", "pIC50": 4.30}
{"Substance smiles": "N#C/C(=C\\c1ccsc1[N+](=O)[O-])C(N)=S", "pIC50": 4.65}
{"Substance smiles": "CCOC(=O)/C(C#N)=C/c1ccc([N+](=O)[O-])s1", "pIC50": 4.47}

Continue with the compound presented below.
Short answer for "N#CC(C#N)=Cc1csc([N+](=O)[O-])c1" : pIC50 was 4.64

* * *

- Measured target: EGFR (human)
- Condition description: caski
Listing: IC50 of selected compounds
Give a bare numeral; the unit µM is implied.

{"Substance smiles": "N#C/C(=C\\c1ccsc1[N+](=O)[O-])C(N)=S", "IC50 / µM": 0.32}

Now for another entry.
compound "N#CC(C#N)=Cc1ccc([N+](=O)[O-])s1" , IC50 observed: 25.8

* * *

- Measured target: UniProtKB P00533
- Condition description: hn5
Quantity kind: IC50

{"Substance smiles": "N#CC(C#N)=C(N)/C(C#N)=C/c1csc([N+](=O)[O-])c1", "Quantity kind": "IC50", "Test result": "> 100 µM"}
{"Substance smiles": "N#C/C(=C\\c1ccsc1[N+](=O)[O-])C(N)=S", "Quantity kind": "IC50", "Test result": "0.27 µM"}
{"Substance smiles": "N#CC(C#N)=C(N)/C(C#N)=C/c1ccsc1[N+](=O)[O-]", "Quantity kind": "IC50", "Test result": "5.1 µM"}
{"Substance smiles": "N#CC(C#N)=C(N)/C(C#N)=C/c1ccc([N+](=O)[O-])s1", "Quantity kind": "IC50", "Test result": "8.4 µM"}
{"Substance smiles": "N#CC(C#N)=Cc1ccc([N+](=O)[O-])s1", "Quantity kind": "IC50", "Test result": "20.7 µM"}

// recorded IC50 for "CCOC(=O)/C(C#N)=C/c1csc([N+](=O)[O-])c1" : > 100 µM

According to the records, this molecule "CCOC(=O)/C(C#N)=C/c1ccc([N+](=O)[O-])s1" displays IC50 of 5.4 µM

response.value for "N#C/C(=C\c1ccc([N+](=O)[O-])s1)C(N)=S" (field: IC50) = 66.9 µM

Lab note: "N#CC(C#N)=Cc1csc([N+](=O)[O-])c1" gave IC50 of 40.4 µM

* * *

Here, each record is paired with measured IC50 data.
- Measured target: EGFR (human)
- Condition description: caski
The reply should be a number in µM, with the unit left off.

Answered cases to consult:
{"Substance smiles": "N#CC(C#N)=Cc1csc([N+](=O)[O-])c1", "Unit spec": "µM", "Test result": 40}
{"Substance smiles": "CCOC(=O)/C(C#N)=C/c1ccc([N+](=O)[O-])s1", "Unit spec": "µM", "Test result": 6.94}
{"Substance smiles": "N#CC(C#N)=C(N)/C(C#N)=C/c1ccc([N+](=O)[O-])s1", "Unit spec": "µM", "Test result": 9.24}
{"Substance smiles": "N#C/C(=C\\c1ccc([N+](=O)[O-])s1)C(N)=S", "Unit spec": "µM", "Test result": 82.9}

Reported IC50 ( "N#CC(C#N)=C(N)/C(C#N)=C/c1ccsc1[N+](=O)[O-]" ) = 4.7

* * *

- Measured target: EGFR (human) (UniProt P00533)
- Condition description: siha
Mark Met only when IC50 stays strictly below 8 µM. Values equal to the cut-off are Not met.

Past entries and their recorded results:
{"Substance smiles": "CCOC(=O)/C(C#N)=C/c1csc([N+](=O)[O-])c1", "Label value": "Not met"}
{"Substance smiles": "CCOC(=O)/C(C#N)=C/c1ccc([N+](=O)[O-])s1", "Label value": "Met"}
{"Substance smiles": "N#C/C(=C\\c1ccc([N+](=O)[O-])s1)C(N)=S", "Label value": "Not met"}
{"Substance smiles": "N#CC(C#N)=C(N)/C(C#N)=C/c1csc([N+](=O)[O-])c1", "Label value": "Not met"}
{"Substance smiles": "N#CC(C#N)=Cc1csc([N+](=O)[O-])c1", "Label value": "Not met"}
{"Substance smiles": "N#CC(C#N)=C(N)/C(C#N)=C/c1ccc([N+](=O)[O-])s1", "Label value": "Not met"}
{"Substance smiles": "N#C/C(=C\\c1ccsc1[N+](=O)[O-])C(N)=S", "Label value": "Met"}

IC50 strictly < 8 µM for this compound? "N#CC(C#N)=Cc1ccc([N+](=O)[O-])s1"
Not met

* * *

- Measured target: UniProtKB P00533
- Condition description: a431
hey, just use y if measured IC50 is less than 5 µM, otherwise n

Would you please look over these solved cases?
{"Substance smiles": "CCOC(=O)/C(C#N)=C/c1ccc([N+](=O)[O-])s1", "Label value": "y"}
{"Substance smiles": "N#CC(C#N)=Cc1ccc([N+](=O)[O-])s1", "Label value": "n"}
{"Substance smiles": "N#CC(C#N)=C(N)/C(C#N)=C/c1csc([N+](=O)[O-])c1", "Label value": "n"}
{"Substance smiles": "N#CC(C#N)=C(N)/C(C#N)=C/c1ccsc1[N+](=O)[O-]", "Label value": "y"}
{"Substance smiles": "N#C/C(=C\\c1ccc([N+](=O)[O-])s1)C(N)=S", "Label value": "n"}
{"Substance smiles": "N#CC(C#N)=Cc1csc([N+](=O)[O-])c1", "Label value": "n"}
{"Substance smiles": "N#CC(C#N)=C(N)/C(C#N)=C/c1ccc([N+](=O)[O-])s1", "Label value": "n"}
{"Substance smiles": "CCOC(=O)/C(C#N)=C/c1csc([N+](=O)[O-])c1", "Label value": "n"}

Shifting focus to the compound that follows.
In the record for "N#C/C(=C\c1ccsc1[N+](=O)[O-])C(N)=S" , is IC50 less than 5 µM?
y

* * *

- Measured target: EGFR (human) (UniProt P00533)
- Condition description: HN5
Quantity kind: IC50 (µM)
Please respond with the number in µM and leave the unit unwritten.

Below, 4 compounds whose answers are already recorded.
{"Substance smiles": "N#CC(C#N)=C(N)/C(C#N)=C/c1ccc([N+](=O)[O-])s1", "Quantity kind": "IC50", "Test result": 12.2}
{"Substance smiles": "CC(C)(C)OC(=O)/C(C#N)=C/c1ccc([N+](=O)[O-])s1", "Quantity kind": "IC50", "Test result": 75}
{"Substance smiles": "CC(C)(C)OC(=O)/C(C#N)=C/c1csc([N+](=O)[O-])c1", "Quantity kind": "IC50", "Test result": 150}
{"Substance smiles": "CCOC(=O)/C(C#N)=C/c1ccsc1[N+](=O)[O-]", "Quantity kind": "IC50", "Test result": 100}

Just so you know, measured IC50 for "N#CC(C#N)=Cc1ccsc1[N+](=O)[O-]" came out at 15.3

Short answer for "CC(C)(C)OC(=O)/C(C#N)=C/c1ccsc1[N+](=O)[O-]" : IC50 was 9

compound "COC(=O)/C(C#N)=C/c1cc([N+](=O)[O-])cs1" , IC50 observed: 18

Record "N#CC(C#N)=Cc1cc([N+](=O)[O-])cs1" , field IC50: 2

Record "N#CC(C#N)=C(N)/C(C#N)=C/c1cc([N+](=O)[O-])cs1" , field IC50: 160

Value of measured IC50 for the entry "COC(=O)/C(C#N)=C/c1ccsc1[N+](=O)[O-]" : 50

Consider "N#CC(C#N)=C(N)/C(C#N)=C/c1ccsc1[N+](=O)[O-]" . Its measured IC50 is 14.6

# compound "N#CC(C#N)=C(N)/C(C#N)=C/c1csc([N+](=O)[O-])c1" ; its IC50 = 7

* * *

Listed molecules paired with reported pIC50
- Measured target: EGFR (human)
- Condition description: HN5
pIC50: −log10 of the molar value.

{"Substance smiles": "N#C/C(=C\\c1cc([N+](=O)[O-])cs1)C(N)=S", "pIC50": "< 3.30"}
{"Substance smiles": "N#C/C(=C\\c1csc([N+](=O)[O-])c1)C(N)=O", "pIC50": "< 3.30"}

Looking up "N#C/C(=C\c1csc([N+](=O)[O-])c1)C(=O)O" , I found its pIC50 recorded as < 3.30

* * *

- Measured target: EGFR (human) (UniProt P00533)
- Condition description: HN5
Quantity kind: IC50

Example molecules with recorded IC50:
{"Substance smiles": "CCCCOC(=O)/C(C#N)=C/c1csc([N+](=O)[O-])c1", "IC50": "> 500 µM"}
{"Substance smiles": "CCOC(=O)/C(C#N)=C/c1cc([N+](=O)[O-])cs1", "IC50": "> 500 µM"}
{"Substance smiles": "CCCCOC(=O)/C(C#N)=C/c1cc([N+](=O)[O-])cs1", "IC50": "> 500 µM"}
{"Substance smiles": "CCCCOC(=O)/C(C#N)=C/c1ccc([N+](=O)[O-])s1", "IC50": "> 500 µM"}
{"Substance smiles": "COC(=O)/C(C#N)=C/c1ccc([N+](=O)[O-])s1", "IC50": "> 500 µM"}
{"Substance smiles": "COC(=O)/C(C#N)=C/c1csc([N+](=O)[O-])c1", "IC50": "> 500 µM"}
{"Substance smiles": "N#C/C(=C\\c1ccc([N+](=O)[O-])s1)C(N)=O", "IC50": "> 500 µM"}
{"Substance smiles": "N#C/C(=C\\c1ccsc1[N+](=O)[O-])C(N)=O", "IC50": "400 µM"}

In plain terms, "CCCCOC(=O)/C(C#N)=C/c1ccsc1[N+](=O)[O-]" has a documented IC50 of > 500 µM

Value of IC50 reported for the molecule "N#C/C(=C\c1ccc([N+](=O)[O-])s1)C(N)=S" is 37.5 µM

Record summary for "CCOC(=O)/C(C#N)=C/c1csc([N+](=O)[O-])c1" : reported IC50 = 9 µM

Measured IC50, "N#C/C(=C\c1csc([N+](=O)[O-])c1)C(N)=S" : 10.5 µM
